Biological target: Metabotropic glutamate receptor 8 (Rattus norvegicus) (UniProt P70579)
Sequence (P70579 whole entry, looked up): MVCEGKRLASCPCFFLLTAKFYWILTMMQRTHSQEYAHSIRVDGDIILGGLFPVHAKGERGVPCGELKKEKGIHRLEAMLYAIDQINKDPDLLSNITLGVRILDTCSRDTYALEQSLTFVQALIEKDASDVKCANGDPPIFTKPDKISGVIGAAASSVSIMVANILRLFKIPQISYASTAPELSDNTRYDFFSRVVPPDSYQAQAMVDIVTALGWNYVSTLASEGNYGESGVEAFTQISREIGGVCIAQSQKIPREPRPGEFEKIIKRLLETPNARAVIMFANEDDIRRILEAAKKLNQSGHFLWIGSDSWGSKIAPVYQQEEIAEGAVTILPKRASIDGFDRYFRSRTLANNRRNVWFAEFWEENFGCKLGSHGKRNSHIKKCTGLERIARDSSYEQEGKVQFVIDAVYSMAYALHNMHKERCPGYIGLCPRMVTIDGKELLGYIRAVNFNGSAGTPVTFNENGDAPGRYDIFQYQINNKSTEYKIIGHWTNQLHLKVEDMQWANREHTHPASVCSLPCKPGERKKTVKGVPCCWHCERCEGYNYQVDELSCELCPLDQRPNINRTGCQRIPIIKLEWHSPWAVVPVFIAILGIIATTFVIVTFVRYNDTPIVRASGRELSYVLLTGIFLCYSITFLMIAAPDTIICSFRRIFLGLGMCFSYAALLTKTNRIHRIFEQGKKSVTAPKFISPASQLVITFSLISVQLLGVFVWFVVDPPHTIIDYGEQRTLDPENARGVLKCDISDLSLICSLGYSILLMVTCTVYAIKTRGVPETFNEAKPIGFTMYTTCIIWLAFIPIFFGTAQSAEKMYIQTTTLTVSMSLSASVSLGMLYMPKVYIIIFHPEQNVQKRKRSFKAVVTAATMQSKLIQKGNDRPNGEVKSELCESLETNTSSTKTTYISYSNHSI
Experiment: mGluR8 Gi/Go-coupled signaling modulation – cell-based, rat, thallium flux, HTS, primary screen (AID 488969)
Settings: HEK293 rat mGluR8, GIRK thallium flux, FluoZin2; at 10 µM; stronger effect = higher value; submaximal glutamate (EC20) added with thallium
Over roughly 110,000 compounds, “z-score” has its median near -0.1; the highest 2% begin near 2. This is one part of a sample in which the highest values are shown more often than they occur.
Please assign a class to every record based on measured z-score, with ranges lower band = under -0.1, central band = from -0.1 up to 0.2, upper band = 0.2 and over

Here are 3 compounds together with their reported answers.
[[record]]
compound = "COc1ccc(CNC(=O)C2CCCN(c3nc4ccccc4o3)C2)c(OC)c1 (stereo not drawn)"
class = "central band"

[[record]]
compound = "Cc1ccccc1-c1noc(-c2ccc(Cl)cc2)n1"
class = "central band"

[[record]]
compound = "COc1cc2c(cc1OC)C(C1C(=O)CCCC1=O)N(C(=O)CCl)CC2 (stereo not drawn)"
class = "lower band"


Exercise: For "O=C(NCCC1=CCCCC1)C(=O)NCc1ccccc1" , which z-score bin applies?
Solution: lower band

Exercise: For "O=C(CCSCc1ccc(Cl)cc1)NCCC1=CCCCC1" , which z-score bin applies?
Solution: lower band

Exercise: For "CCOC(=O)/C(N=Nc1c(Br)cc(Br)cc1Br)=C(\C)O" , which z-score bin applies?
Solution: upper band

Exercise: For NC(=O)C1CNc2ccccc2O1 (stereo not drawn) , which z-score bin applies?
Solution: upper band

Exercise: For CC1CN(c2c3c(nc4ncnn24)CCCC3)CC(C)O1 (stereo not drawn) , which z-score bin applies?
Solution: lower band

====

Target: Metabotropic glutamate receptor 8 (Rattus norvegicus)
Experiment: mGluR8 Gi/Go-coupled signaling modulation – cell-based, rat, thallium flux, HTS, primary screen (AID 488969)
Settings: HEK293 rat mGluR8, GIRK (G protein-gated inwardly rectifying potassium channel) thallium flux, FluoZin2; at 10 µM; stronger effect = higher value; submaximal glutamate (EC20) added with thallium
Over roughly 110,000 compounds, “z-score” has its median near -0.1; the highest 2% begin near 2. This is one part of a sample in which the highest values are shown more often than they occur.
Think of 0.003 as a floor: if z-score stands on it or above, it is 1.0; beneath it, 0.0.

[[record]]
compound = "Cc1nc(NCCc2ccc(S(N)(=O)=O)cc2)c2c(C)c(C)sc2n1"
class = 1.0

[[record]]
compound = "Cc1ccc2c(Cl)cc(Cl)c(OCC(=O)Nc3cc(S(=O)(=O)N(C)C)ccc3C)c2n1"
class = 0.0

[[record]]
compound = "O=C(Nc1ccc(N2CCOCC2)cc1)C1CC1"
class = 1.0


Exercise: Tell me whether z-score is at least 0.003 here: "COC(=O)c1ccccc1NC(=S)NC(=O)c1ccc2ccccc2c1"
Solution: 1.0

Exercise: Tell me whether z-score is at least 0.003 here: "CN(C)c1nc2ccccc2c(N)c1-c1ccccc1"
Solution: 1.0

Exercise: Tell me whether z-score is at least 0.003 here: "CC(C)n1c2ccccc2c2cc([N+](=O)[O-])ccc21"
Solution: 0.0

Exercise: Tell me whether z-score is at least 0.003 here: "CCCCn1c(CN(Cc2ccccc2)Cc2ccccc2)nc2c1c(=O)n(C)c(=O)n2C"
Solution: 1.0

Exercise: Tell me whether z-score is at least 0.003 here: CN(Cc1ccc(-n2cccn2)cc1)C(=O)c1cnn2c1NC(c1ccco1)CC2C(F)(F)F (stereo unspecified)
Solution: 0.0
